ASSAY NOTES: chemical genetic growth profiling, strain panel (AID 1159580);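 further: tested at 20 µM; growth read once vehicle control cultures reached saturation at 30 °C; lower values mean less growth of the strain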
RUN PARAMETERS: S. cerevisiae deletion strains, growth OD, locus YMR231W, strain pep5
Among all 5,500 compounds or so, about 2,000 (36%) were called active. Another 18% or so got no clear call; they are omitted. No stated cut-off is given here; in the data, active means normalized growth mostly below about 0.91 (no sharp cut-off); inconclusive means no clear call, values can overlap the other calls; inactive means mostly above about 0.92. The list shows a part of the results.
Outcome codes: active, inactive

>  <COMPOUND>
O=C(Oc1cccc2cccnc12)c1ccccc1

>  <CLASS NAME>
inactive

$$$$
>  <COMPOUND>
C=CCSCC=C

>  <CLASS NAME>
inactive

$$$$
>  <COMPOUND>
Cc1cc(N)c2ccccc2[n+]1CCCCCCCCCC[n+]1c(C)cc(N)c2ccccc21

>  <CLASS NAME>
active

$$$$
>  <COMPOUND>
CO[C@@H]1[C@@H](OC(N)=O)[C@@H](O)[C@H](Oc2ccc3c(O)c(NC(=O)c4ccc(O)c(CC=C(C)C)c4)c(=O)oc3c2C)OC1(C)C

>  <CLASS NAME>
inactive

$$$$
>  <COMPOUND>
N#Cc1c(Cl)cccc1Cl

>  <CLASS NAME>
inactive

$$$$
>  <COMPOUND>
O=C(CCCN1CCC(O)(c2ccc(Cl)cc2)CC1)c1ccc(F)cc1

>  <CLASS NAME>
inactive

$$$$
>  <COMPOUND>
O=C(CCCN1CCC2(CC1)C(=O)NCN2c1ccccc1)c1ccc(F)cc1

>  <CLASS NAME>
inactive

$$$$
>  <COMPOUND>
C=CCSC[C@@H](N)C(=O)O

>  <CLASS NAME>
inactive

$$$$
>  <COMPOUND>
CCCCCC(O)C1C(=O)OC(C)C(O)/C=C/C=C/C=C/C=C/C=C(\C)C(O)CC(O)CC(O)CC(O)CC(O)CC(O)CC1O (stereo unspecified)

>  <CLASS NAME>
inactive

$$$$
>  <COMPOUND>
CC(C)(C)NCC(O)COc1cccc2c1CCCC2=O (stereo unspecified)

>  <CLASS NAME>
inactive

$$$$
>  <COMPOUND>
Cc1ccccc1N1C(=O)c2cc(S(N)(=O)=O)c(Cl)cc2NC1C (stereo unspecified)

>  <CLASS NAME>
inactive

$$$$
>  <COMPOUND>
C[C@H]1[C@H](C)CC[C@]2(C(=O)O)CC[C@]3(C)C(=CCC4[C@@]5(C)C[C@@H](O)[C@H](O)[C@@](C)(CO)C5CC[C@]43C)[C@H]12 (stereo partly specified)

>  <CLASS NAME>
inactive

$$$$
>  <COMPOUND>
COc1cc(C(=O)N2CCOCC2)cc(OC)c1OC

>  <CLASS NAME>
inactive

$$$$
>  <COMPOUND>
O=C(CCCN1CCN(c2ccccn2)CC1)c1ccc(F)cc1

>  <CLASS NAME>
inactive

$$$$
>  <COMPOUND>
CC1CCCC(C)N1NC(=O)c1ccc(Cl)c(S(N)(=O)=O)c1 (stereo unspecified)

>  <CLASS NAME>
inactive

$$$$
>  <COMPOUND>
C=CCSSSCC=C

>  <CLASS NAME>
inactive

$$$$
>  <COMPOUND>
CN(C)C(=O)C(CCN1CCC(O)(c2ccc(Cl)cc2)CC1)(c1ccccc1)c1ccccc1

>  <CLASS NAME>
inactive

$$$$
>  <COMPOUND>
C/C=C/CC(C)C(O)C1C(=O)NC(CC)C(=O)N(C)CC(=O)N(C)C(CC(C)C)C(=O)NC(C(C)C)C(=O)N(C)C(CC(C)C)C(=O)NC(C)C(=O)NC(C)C(=O)N(C)C(CC(C)C)C(=O)N(C)C(CC(C)C)C(=O)N(C)C(C(C)C)C(=O)N1C (stereo unspecified)

>  <CLASS NAME>
active

$$$$
>  <COMPOUND>
CC(=O)N1CCN(c2ccc(OCC3CO[C@](Cn4ccnc4)(c4ccc(Cl)cc4Cl)O3)cc2)CC1 (stereo partly specified)

>  <CLASS NAME>
active

$$$$
>  <COMPOUND>
COC(=O)N/N=C\c1c[n+]([O-])c2ccccc2[n+]1[O-]

>  <CLASS NAME>
inactive

$$$$
>  <COMPOUND>
CN(C)CC[C@H](c1ccc(Cl)cc1)c1ccccn1

>  <CLASS NAME>
inactive

$$$$
